# target_of_assay: Human PPARα (Homo sapiens)
# Construct: host or cells: proprietary non-human mammalian cells
# Sequence (Q07869 1-468): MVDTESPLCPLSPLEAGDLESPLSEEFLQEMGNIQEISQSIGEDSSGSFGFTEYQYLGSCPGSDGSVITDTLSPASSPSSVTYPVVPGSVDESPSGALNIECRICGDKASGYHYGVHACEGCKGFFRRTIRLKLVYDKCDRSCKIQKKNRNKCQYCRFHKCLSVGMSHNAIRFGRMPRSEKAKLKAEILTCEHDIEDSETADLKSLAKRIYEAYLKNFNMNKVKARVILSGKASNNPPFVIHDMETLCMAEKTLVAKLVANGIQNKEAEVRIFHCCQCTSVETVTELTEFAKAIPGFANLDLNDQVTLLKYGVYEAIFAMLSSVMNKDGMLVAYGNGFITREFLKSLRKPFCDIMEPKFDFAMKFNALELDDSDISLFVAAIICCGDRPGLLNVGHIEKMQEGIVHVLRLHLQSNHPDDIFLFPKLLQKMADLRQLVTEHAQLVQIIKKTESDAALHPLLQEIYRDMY
# test_details: Human PPARα Reporter Assay (luciferase)
# Format: cell-based
# condition_description: human PPARα reporter cells, overnight incubation, antagonism; read-out: Luciferase IC50
# Protocol: Human PPARα Reporter Assay The screening of test compounds for agonist or antagonist activities against human PPARα receptors was performed using a commercial kit, Human PPARα Reporter Assay System (Indigo Biosciences, Cat. #IB00111). This nuclear receptor assay system utilizes proprietary non-human mammalian cells engineered to provide constitutive, high-level expression of Human PPARα. […]
Catalogue of pIC50 values
pIC50 here: minus log base 10 of the concentration, concentration in moles per litre.

> print(dat)
                                   compound             target.of.assay  observation.type  observed.value
1  CCn1c(CCCc2ccc(-c3ccc(OC)c(S(=O)(=O)Nc4ccccn4)c3)cc2)nn(Cc2ccc(C(C)(C)C)cc2)c1=O  Human PPARα (Homo sapiens)             pIC50            6.73
2  CCn1c(CCCc2ccc(-c3cccc(CC(=O)O)c3)cc2)nn(Cc2ccc(C(C)(C)C)c(C3CC3)c2)c1=O  Human PPARα (Homo sapiens)             pIC50            6.18
3  CCn1c(CCCc2ccc(-c3cc(C)c(NS(=O)(=O)Cc4ccccc4)cn3)cc2)nn(Cc2ccc(C(C)(C)C)cc2)c1=O  Human PPARα (Homo sapiens)             pIC50            6.35
4  CCn1c(CCCc2ccc(-c3ccc(CC(=O)O)nc3)cc2)nn(Cc2ccc(C(C)(C)C)cc2)c1=O  Human PPARα (Homo sapiens)             pIC50            6.05
5  CCn1c(CCCc2ccc(-c3cccc(CC(=O)O)c3)cc2)nn(Cc2ccc(C3CC3)cc2)c1=O  Human PPARα (Homo sapiens)             pIC50            6.21
6  CCOc1ccc(-c2ccc(CCCc3nn(Cc4ccc(C(C)(C)C)cc4)c(=O)n3CC)cc2)nc1N  Human PPARα (Homo sapiens)             pIC50            7.20
7  CCn1c(CCCc2ccc(-c3cccc(NC(=O)c4ccccc4)n3)cc2)nn(Cc2ccc(C(C)(C)C)cc2)c1=O  Human PPARα (Homo sapiens)             pIC50            6.13
8  CCn1c(CCCc2ccc(-c3cc(CC(=O)O)ccc3OC)cc2)nn(Cc2ccc(C(C)(C)C)cc2)c1=O  Human PPARα (Homo sapiens)             pIC50            5.74

# get_value(readout= pIC50, system= Human PPARα (Homo sapiens)) for `CCn1c(CCCc2ccc(-c3ccc(C)c(C(=O)O)c3)cc2)nn(Cc2ccc(C(C)(C)C)cc2)c1=O`
7.92

Same for `CCn1c(CCCc2ccc(-c3ccc(OC)c(CC(=O)O)n3)cc2)nn(Cc2ccc(C(C)(C)C)cc2)c1=O`
6.94

Thanks! And `CCOc1ccc(-c2ccc(CCCc3nn(Cc4ccc(C(C)(C)C)cc4)c(=O)n3CC)cc2)cc1C1(C(=O)O)CC1` ?
6.73

Could you do the same for `CCn1c(CCC(F)(F)c2ccc(-c3ccc(C4(F)COC4)cn3)cc2)nn(Cc2ccc(C(C)(C)C)cc2)c1=O` , please?
7.31

Do the same for `CCn1c(CCCc2ccc(-c3ccc(OCC4CC4)c(CC(=O)O)c3)cc2)nn(Cc2ccc(C(C)(C)C)cc2)c1=O` please
7.16

Continue with CCn1c(CCCc2ccc(-c3ccc4c(c3)C(C(=O)O)CO4)cc2)nn(Cc2ccc(C(C)(C)C)cc2)c1=O (racemic)
6.57

###

# target_of_assay: PPAR gamma (Homo sapiens, UniProt P37231)
# Construct: host or cells: engineered reporter cells of the kit
# Sequence (P37231 whole entry): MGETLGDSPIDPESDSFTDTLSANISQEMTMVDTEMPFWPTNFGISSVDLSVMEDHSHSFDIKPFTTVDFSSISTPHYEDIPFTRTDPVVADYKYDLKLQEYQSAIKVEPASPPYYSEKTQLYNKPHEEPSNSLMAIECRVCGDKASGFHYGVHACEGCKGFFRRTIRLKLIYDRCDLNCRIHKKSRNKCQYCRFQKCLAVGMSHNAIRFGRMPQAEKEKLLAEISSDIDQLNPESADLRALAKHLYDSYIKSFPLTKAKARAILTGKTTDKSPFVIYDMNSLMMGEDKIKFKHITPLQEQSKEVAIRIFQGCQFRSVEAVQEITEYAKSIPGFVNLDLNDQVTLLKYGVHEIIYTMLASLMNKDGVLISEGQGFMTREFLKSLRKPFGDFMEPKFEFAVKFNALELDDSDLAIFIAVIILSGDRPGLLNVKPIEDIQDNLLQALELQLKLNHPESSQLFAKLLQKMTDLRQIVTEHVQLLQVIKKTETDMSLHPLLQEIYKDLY
# test_details: Target selectivity counterscreen, PPAR γ reporter assay
# Assay type: cell-based
# condition_description: receptor agonist at ~EC80
observation_type: IC50 (nM)
Field format: number, assumed nM, no unit text.

Need IC50, item CCn1c(CCCc2ccc(-c3ccc(NS(=O)(=O)c4ccccc4)cn3)cc2)nn(Cc2ccc(C(C)(C)C)cc2)c1=O [Example 10]
2900

###

Documented log10 IC50 across a set of compounds
# target_of_assay: Human PPARα (Homo sapiens, UniProt Q07869)
# Construct: host or cells: proprietary non-human mammalian cells
# Sequence (Q07869 1-468): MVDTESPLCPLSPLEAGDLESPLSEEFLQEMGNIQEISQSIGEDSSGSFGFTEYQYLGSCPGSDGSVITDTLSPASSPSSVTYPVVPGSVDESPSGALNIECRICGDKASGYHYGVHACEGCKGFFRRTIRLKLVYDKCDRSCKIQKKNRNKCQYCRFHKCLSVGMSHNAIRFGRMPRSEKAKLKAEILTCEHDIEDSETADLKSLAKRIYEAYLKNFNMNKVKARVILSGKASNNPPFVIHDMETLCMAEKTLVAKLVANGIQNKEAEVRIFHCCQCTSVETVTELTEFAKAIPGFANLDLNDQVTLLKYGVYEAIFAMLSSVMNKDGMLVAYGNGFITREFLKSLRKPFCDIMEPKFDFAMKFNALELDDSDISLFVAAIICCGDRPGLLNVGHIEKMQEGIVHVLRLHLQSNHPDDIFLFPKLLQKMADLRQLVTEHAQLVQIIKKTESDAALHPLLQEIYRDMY
# test_details: Human PPARα Reporter Assay (luciferase)
# Type: cell-based
# condition_description: human PPARα reporter cells, overnight incubation, antagonism; read-out: Luciferase IC50
Lab note - IC50 converted to log10 from values in nM.

> print(dat)
                         structure.notation  observed.value
1  CCn1c(CCCc2ccc(-c3ccc(C4(O)CCOCC4)cc3)cc2)nn(Cc2ccc(C(C)(C)C)cc2)c1=O            2.78
2  CCOc1ccc(-c2ccc(CCCc3nn(Cc4ccc(C(C)(C)C)cc4)c(=O)n3CC)cc2)cc1C1(C#N)CC1            2.78
3  CCn1c(CCCc2ccc(-c3ccc(OC(F)(F)F)c(CC(=O)O)c3)cc2)nn(Cc2ccc(C(C)(C)C)cc2)c1=O            1.04
4  CCn1c(CCCc2ccc(-c3ccc(OC)c(CC(=O)O)c3)c(C)c2)nn(Cc2ccc(C(C)(C)C)cc2)c1=O            1.97
5  CCn1c(CCCc2ccc(-c3ccc(NS(=O)(=O)c4ccc(Cl)cc4)cn3)cc2)nn(Cc2ccc(C(C)(C)C)cc2)c1=O            2.69

Name the reported log10 IC50 value associated with the compound `CCn1c(CCCc2ccc(-c3ccc(OC)c(NS(=O)(=O)c4ccc(OC)nc4)n3)cc2)nn(Cc2ccc(C(C)(C)C)cc2)c1=O`
0.85

// same read-out, input: `CCn1c(CCCc2ccc(-c3ccc(C(=O)C(=O)NC4CC4)cc3)cc2)nn(Cc2ccc(C(C)(C)C)cc2)c1=O`
2.64

Same question, `CCn1c(CCCc2ccc(-c3ccc(OC)c([C@@H](C)C(=O)O)c3)cc2)nn(Cc2ccc(C(C)(C)C)cc2)c1=O` this time
1.46

###

# target_of_assay: Thyroid Receptor β (Homo sapiens, UniProt P10828)
# Sequence (P10828 1-461): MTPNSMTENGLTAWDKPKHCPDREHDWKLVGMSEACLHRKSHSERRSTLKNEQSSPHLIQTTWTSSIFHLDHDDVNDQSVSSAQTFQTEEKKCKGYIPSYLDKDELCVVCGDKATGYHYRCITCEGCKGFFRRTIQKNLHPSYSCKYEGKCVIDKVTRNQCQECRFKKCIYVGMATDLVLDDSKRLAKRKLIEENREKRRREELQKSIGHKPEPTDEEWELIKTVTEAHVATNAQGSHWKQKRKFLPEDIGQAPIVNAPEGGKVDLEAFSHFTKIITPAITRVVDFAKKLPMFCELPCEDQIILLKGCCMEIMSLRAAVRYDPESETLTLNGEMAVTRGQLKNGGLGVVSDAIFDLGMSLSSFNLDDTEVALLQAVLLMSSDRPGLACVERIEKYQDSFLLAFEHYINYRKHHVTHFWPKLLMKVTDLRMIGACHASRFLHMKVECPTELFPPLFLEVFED
# test_details: Target selectivity counterscreen, Thyroid Receptor β reporter assay
# condition_description: receptor agonist at ~EC80
pIC50: −log10 of the molar value.
observation_type: pIC50

> print(dat)
                         structure.notation                           target.of.assay  observation.type  observed.value
1  CCn1c(CCCc2ccc(-c3cccc(CC(=O)O)c3)cc2)nn(Cc2ccccc2)c1=O  Thyroid Receptor β (Homo sapiens, UniProt P10828)             pIC50          < 5.00

Next:
Can you share its pIC50? I mean this molecule: `CCn1c(CCCc2ccc(-c3ccc(NS(=O)(=O)c4ccccc4)cn3)cc2)nn(Cc2ccc(C(C)(C)C)cc2)c1=O`
< 5.00
